What growth at 100 µM was measured for each of the following?
test name: Antiproliferative activity against human HCT116 cells assessed as cell growth at 10^-4 M after 48 hrs by sulforhodamine B assay
Type: functional
conditions: HCT-116, 48 h, read-out: Activity
Numbers only, in %.

In plain terms, CNC(=O)c1cc(Oc2ccc3nc(NC(=O)Nc4ccc(Cl)c(Cl)c4)sc3c2)ccn1 has a documented growth at 100 µM of -54

In plain terms, CNC(=O)c1cc(Oc2ccc3nc(NC(=O)Nc4ccc(Cl)c(C(F)(F)F)c4)sc3c2)ccn1 has a documented growth at 100 µM of -19

In plain terms, CNC(=O)c1cc(Oc2ccc3nc(NC(=O)c4cc(C(F)(F)F)cc(C(F)(F)F)c4)sc3c2)ccn1 has a documented growth at 100 µM of -84

***
In plain terms, CNC(=O)c1cc(Oc2ccc3nc(NC(=O)Nc4cc(C(F)(F)F)cc(C(F)(F)F)c4)sc3c2)ccn1 has a documented growth at 100 µM of -95

* * *

System: 786-0
test name: Antiproliferative activity against human 786-0 cells assessed as cell growth at […] after 48 hrs by sulforhodamine B assay
Type: functional
conditions: 786-0, 48 h, read-out: Activity
readout type: growth at 100 µM (%)
Numbers only, in %.

Before answering, review these 3 worked examples.
In plain terms, CNC(=O)c1cc(Oc2ccc3nc(NC(=O)Nc4ccc(Cl)c(Cl)c4)sc3c2)ccn1 has a documented growth at 100 µM of -67

In plain terms, CNC(=O)c1cc(Oc2ccc3nc(NC(=O)Nc4ccc(Cl)c(C(F)(F)F)c4)sc3c2)ccn1 has a documented growth at 100 µM of -77

In plain terms, CNC(=O)c1cc(Oc2ccc3nc(NC(=O)Nc4cc(C(F)(F)F)cc(C(F)(F)F)c4)sc3c2)ccn1 has a documented growth at 100 µM of -94

***
In plain terms, CNC(=O)c1cc(Oc2ccc3nc(NC(=O)c4cc(C(F)(F)F)cc(C(F)(F)F)c4)sc3c2)ccn1 has a documented growth at 100 µM of -71

* * *

test name: Antiproliferative activity against human RPMI8226 cells assessed as cell growth at 10^-6 M after 48 hrs by sulforhodamine B assay
Format: functional
conditions: RPMI-8226, 48 h, read-out: Activity
readout type: growth at 1 µM (%)
Give bare numbers, in %.

I need growth at 1 µM for every entry listed below, if you could help.
1. CNC(=O)c1cc(Oc2ccc3nc(NC(=O)Nc4ccc(Cl)c(C(F)(F)F)c4)sc3c2)ccn1
2. CNC(=O)c1cc(Oc2ccc3nc(NC(=O)Nc4ccc(Cl)c(Cl)c4)sc3c2)ccn1

Result:
1: 82; 2: 103

I need growth at 1 µM for every entry listed below, if you could help.
1. CNC(=O)c1cc(Oc2ccc3nc(NC(=O)c4cc(C(F)(F)F)cc(C(F)(F)F)c4)sc3c2)ccn1
2. CNC(=O)c1cc(Oc2ccc3nc(NC(=O)Nc4cc(C(F)(F)F)cc(C(F)(F)F)c4)sc3c2)ccn1

Result:
[75, 51]

* * *

Tested on: M14
test name: Antiproliferative activity against human M14 cells assessed as cell growth at 10^-8 M after 48 hrs by sulforhodamine B assay
Type: functional
conditions: M14, 48 h, read-out: Activity
readout type: growth at 0.01 µM (%)
Numbers only, in %.

I need growth at 0.01 µM for every entry listed below, if you could help.
1. CNC(=O)c1cc(Oc2ccc3nc(NC(=O)Nc4ccc(Cl)c(C(F)(F)F)c4)sc3c2)ccn1
2. CNC(=O)c1cc(Oc2ccc3nc(NC(=O)Nc4cc(C(F)(F)F)cc(C(F)(F)F)c4)sc3c2)ccn1
3. CNC(=O)c1cc(Oc2ccc3nc(NC(=O)Nc4ccc(Cl)c(Cl)c4)sc3c2)ccn1
4. CNC(=O)c1cc(Oc2ccc3nc(NC(=O)c4cc(C(F)(F)F)cc(C(F)(F)F)c4)sc3c2)ccn1

Result:
1: 90; 2: 91; 3: 93; 4: 99

Data origin, for the record: ChEMBL document CHEMBL3797052
